Every entry's value here was drawn from paper PMC4563558.

methodSummary: Acute oral toxicity, bodyweights
Format: in vivo
experimentalConditions: mice, day 7
measurementLabel: Bodyweights 7 days ± SD (g)
Your answer is read as g, so omit the unit and give the number.

Worked examples, 3 compounds total:
compound	measurementLabel	numericResult
COc1cc(OC)nc(NC(=O)CN2CCN(c3cccc(C(F)(F)F)c3)CC2)n1 [3r]	Bodyweights 7 days ± SD	25.07
COc1cc(OC)nc(NC(=O)CN2CCN(c3ccc(Cl)c(Cl)c3)CC2)n1 [3p]	Bodyweights 7 days ± SD	27.33
COc1cc(OC)nc(NC(=O)CN2CCN(c3ccccc3OC)CC2)n1 [3e]	Bodyweights 7 days ± SD	25.34

Now examine the next entry.
Return reported Bodyweights 7 days ± SD. Input compound: COc1cc(OC)nc(NC(=O)CN2CCN(c3ccccn3)CC2)n1 [3m]
22.09

----------
measurementTarget: PDGFR
methodSummary: Kinase selectivity assay (kit), PDGFR
experimentalConditions: read-out: Inhibition of PDGFR IC50
Define the label as Yes when IC50 is strictly less than 30 µM and as No in all remaining cases.

Observe how each entry below is paired with its result.
chemicalString	measurementTarget	classLabel
COc1cc(OC)nc(NC(=O)CN2CCN(c3ccccn3)CC2)n1	PDGFR	No
COc1cc(OC)nc(NC(=O)CN2CCN(c3ccccc3OC)CC2)n1	PDGFR	Yes
COc1ccc(N2CCN(CC(=O)Nc3nc(OC)cc(OC)n3)CC2)cc1	PDGFR	No
COc1cc(OC)nc(NC(=O)CN2CCN(c3ccc([N+](=O)[O-])cc3)CC2)n1	PDGFR	Yes

API: the following record is the query input.
Lab note: confirm whether the reported IC50 for this molecule is below 30 µM, equality not counting. molecule: `COc1cc(OC)nc(NC(=O)CN2CCN(c3ccccc3)CC2)n1`
Yes

----------
measurementTarget: UniProtKB P35968
Sequence (P35968 20-1356, species assumed): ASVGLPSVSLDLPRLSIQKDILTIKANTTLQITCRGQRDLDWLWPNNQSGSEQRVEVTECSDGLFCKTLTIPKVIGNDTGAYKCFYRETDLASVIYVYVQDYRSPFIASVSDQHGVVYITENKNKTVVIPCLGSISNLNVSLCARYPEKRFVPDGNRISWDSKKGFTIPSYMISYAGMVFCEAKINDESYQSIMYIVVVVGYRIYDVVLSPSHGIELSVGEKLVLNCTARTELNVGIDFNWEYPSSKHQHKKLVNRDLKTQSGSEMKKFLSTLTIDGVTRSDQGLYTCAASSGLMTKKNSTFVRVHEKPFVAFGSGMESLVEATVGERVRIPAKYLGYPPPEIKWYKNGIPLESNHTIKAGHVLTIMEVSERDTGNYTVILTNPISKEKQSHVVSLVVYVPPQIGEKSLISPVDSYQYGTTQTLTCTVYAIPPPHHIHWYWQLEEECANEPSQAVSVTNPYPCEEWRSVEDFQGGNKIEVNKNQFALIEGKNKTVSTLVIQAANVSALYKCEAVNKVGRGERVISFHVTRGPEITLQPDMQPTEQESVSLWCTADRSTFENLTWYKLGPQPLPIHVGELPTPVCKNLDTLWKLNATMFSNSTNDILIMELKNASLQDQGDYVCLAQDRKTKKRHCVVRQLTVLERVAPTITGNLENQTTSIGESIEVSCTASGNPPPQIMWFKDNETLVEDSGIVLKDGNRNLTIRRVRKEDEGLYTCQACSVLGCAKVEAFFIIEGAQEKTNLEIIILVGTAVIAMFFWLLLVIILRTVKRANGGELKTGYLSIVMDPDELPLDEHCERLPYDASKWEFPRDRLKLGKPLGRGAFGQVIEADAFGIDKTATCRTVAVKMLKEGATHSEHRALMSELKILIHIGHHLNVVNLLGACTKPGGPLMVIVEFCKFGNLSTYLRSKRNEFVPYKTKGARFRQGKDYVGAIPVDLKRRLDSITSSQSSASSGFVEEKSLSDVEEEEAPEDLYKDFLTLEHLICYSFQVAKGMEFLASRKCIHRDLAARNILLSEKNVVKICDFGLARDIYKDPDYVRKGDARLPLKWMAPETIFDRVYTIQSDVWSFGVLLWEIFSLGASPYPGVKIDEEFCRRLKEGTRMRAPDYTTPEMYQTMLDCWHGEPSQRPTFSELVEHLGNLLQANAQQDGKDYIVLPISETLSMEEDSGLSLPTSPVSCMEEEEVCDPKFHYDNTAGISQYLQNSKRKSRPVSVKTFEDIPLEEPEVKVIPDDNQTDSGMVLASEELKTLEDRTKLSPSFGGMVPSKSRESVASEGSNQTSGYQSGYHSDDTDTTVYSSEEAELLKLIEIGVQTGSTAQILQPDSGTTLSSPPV
Define the label as 1 when IC50 is strictly less than 7 µM and as -1 in all remaining cases.

chemicalString	classLabel
COc1cc(OC)nc(NC(=O)CN2CCN(c3ccccc3F)CC2)n1	-1
COc1cc(OC)nc(NC(=O)CN2CCN(c3ccc([N+](=O)[O-])cc3)CC2)n1	-1
COc1cc(OC)nc(NC(=O)CN2CCN(c3ccc(Cl)c(Cl)c3)CC2)n1	1
COc1cc(OC)nc(NC(=O)CN2CCN(c3ccccc3)CC2)n1	-1
COc1ccc(N2CCN(CC(=O)Nc3nc(OC)cc(OC)n3)CC2)cc1	1

Lab note: confirm whether the reported IC50 for this compound is below 7 µM, equality not counting. compound: `COc1cc(OC)nc(NC(=O)CN2CCN(c3ccccc3OC)CC2)n1`
1

Lab note: confirm whether the reported IC50 for this compound is below 7 µM, equality not counting. compound: `COc1cc(OC)nc(NC(=O)CN2CCN(c3ccccn3)CC2)n1`
-1

----------
methodSummary: in vitro
Assay type: cell-based
experimentalConditions: mouse
measurementLabel: IC50 at 24 h (µM)
Your answer is read as µM, so omit the unit and give the number.

compound	measurementLabel	unit	numericResult
COc1ccc(N2CCN(CC(=O)Nc3nc(OC)cc(OC)n3)CC2)cc1 [3i]	IC50 at 24 h	µM	198
COc1cc(OC)nc(NC(=O)CN2CCN(c3ccccc3)CC2)n1 [3d]	IC50 at 24 h	µM	150
COc1cc(OC)nc(NC(=O)CN2CCN(c3ccccn3)CC2)n1 [3m]	IC50 at 24 h	µM	182
COc1cc(OC)nc(NC(=O)CN2CCN(c3ccc(Cl)c(Cl)c3)CC2)n1 [3p]	IC50 at 24 h	µM	239
COc1cc(OC)nc(NC(=O)CN2CCN(c3ccc([N+](=O)[O-])cc3)CC2)n1 [3f]	IC50 at 24 h	µM	155
COc1cc(OC)nc(NC(=O)CN2CCN(c3ccccc3OC)CC2)n1 [3e]	IC50 at 24 h	µM	173
COc1cc(OC)nc(NC(=O)CN2CCN(c3ccccc3F)CC2)n1 [3c]	IC50 at 24 h	µM	230

Now examine the next entry.
Return reported IC50 at 24 h. Input compound: COc1cc(OC)nc(NC(=O)CN2CCN(c3cccc(C(F)(F)F)c3)CC2)n1 [3r]
185
